# test: Clearance of 99m-Tc-IMP-192 in BALB/c mice
# Format: in vivo
# details: BALB/c, mouse; Lungs, 4 h
Where a SMILES comes first, the peptide text is derived from it. Side-chain parts run from the residue outwards. The star is where a group is joined. DTPA = O=C(O)CN(CCN(CC(=O)O)CC(=O)O)CCN(CC(=O)O)CC(=O)*; X1 = NC(=S)NN=CC(=O)*
reported_property: tissue uptake at 4 h (%ID/g)
Numbers only, in %ID/g.

Q: Retrieve tissue uptake at 4 h measured for CC(=O)N[C@@H](CCCCNC(=O)CN(CCN(CCN(CC(=O)O)CC(=O)O)CC(=O)O)CC(=O)O)C(=O)N[C@@H](Cc1ccc(O)cc1)C(=O)N[C@@H](CCCCNC(=O)CN(CCN(CCN(CC(=O)O)CC(=O)O)CC(=O)O)CC(=O)O)C(=O)N[C@@H](CCCCNC(=O)[C@H](CS)NC(=O)C=NNC(N)=S)C(N)=O [IMP 192] (Ac-K(DTPA)YK(DTPA)K([Cys-X1])-NH2) and print it.
A: 0.19
